Origin of values: paper PMC5011342

tested on: expanded OPCs; experiment: cells; details: Rattus norvegicus, 72 h, read-out: 10 µM (% DMSO), alamarBlue viability, NCC library compound at 10 µM, sheet "All Tox data"
Quick rule for you: viability at 10 µM under 80% gets True, anything else gets False.

*Q* Just wondering, is viability at 10 µM of COc1cccc(C2(O)CCCCC2CN(C)C)c1 (stereo not shown) below 80%?
*A* False

*Q* Determine whether this molecule shows viability at 10 µM lower than 80% (ties excluded): CC(Cc1ccccc1)(NC(=O)CN)c1ccccc1 (stereo not shown) [Remacemide]
*A* True

*Q* Given "NCCc1ccc(O)c(O)c1" , is recorded viability at 10 µM strictly lower than 80%?
*A* True

*Q* # check: viability at 10 µM < 80% for CC(=O)OCC(=O)NCCCOc1cccc(CN2CCCCC2)c1 [Roxatidine acetate]
*A* False

*Q* Take the molecule "Cc1occc(=O)c1O" and say whether its viability at 10 µM is less than 80%.
*A* False

*Q* Determine if "CN(C)CC/C=C1/c2ccccc2COc2ccc(CC(=O)O)cc21" shows viability at 10 µM strictly lower than 80%.
*A* True

*Q* Confirm or reject: viability at 10 µM of OCc1cc(C(O)CNCCCCCCOCCCCc2ccccc2)ccc1O (stereo not shown) [Salmeterol, reference compound] lies strictly below 80%
*A* True

*Q* Hello, I'm reviewing records and need to know if viability at 10 µM of "CC1(C)S[C@@H]2[C@H](NC(=O)Cc3ccccc3)C(=O)N2[C@H]1C(=O)O" is below 80%. Could you check?
*A* False

*Q* Does "C=CC1=C(C(=O)O)N2C(=O)[C@@H](NC(=O)/C(=N\O)c3csc(N)n3)[C@H]2SC1" have viability at 10 µM strictly under 80%?
*A* False

###

Test system: expanded OPCs
Test: cells
Details: alamarBlue viability of expanded OPCs, compound at 1 µM, relative to DMSO control
Source text: Having established a consistent assay for measuring OL differentiation in vitro, the next step was to utilize this assay to assess the ability of a wide array of compounds to promote OL differentiation. Prior to library screening, we first established the maximum non-toxic dose of each compound in the library. […] Three days later, we assessed viability of the treated cells by measuring AlamarBlue fluorescence, a measure of cell viability (see “Methods” section). […]
Counter-ions that a name gives are not always drawn.
Exam item: assign T to entries whose 1 µM (% DMSO) is below 90 % DMSO and F to entries at or above 90 % DMSO. Note that a value of exactly 90 % DMSO receives F.

*Q* Please state whether 1 µM (% DMSO) is below 90 % DMSO for CC[C@H]1OC(=O)[C@H](C)[C@@H](O[C@H]2C[C@@](C)(OC)[C@@H](O)[C@H](C)O2)[C@H](C)[C@@H](O[C@@H]2O[C@H](C)C[C@H](N(C)C)[C@H]2O)[C@](C)(O)C[C@@H](C)CN(C)[C@H](C)[C@@H](O)[C@]1(C)O [Azithromycin]
*A* T

*Q* Check if 1 µM (% DMSO) falls below 90 % DMSO for Cc1nccn1CC1CCc2c(c3ccccc3n2C)C1=O (stereo not shown) [Ondansetron] .
*A* F

*Q* Check if 1 µM (% DMSO) falls below 90 % DMSO for C[N+]1(C)CCC(OC(=O)C(O)(c2ccccc2)C2CCCC2)C1 (stereo not shown) [Glycopyrrolate] .
*A* F

*Q* Please indicate whether the reported 1 µM (% DMSO) of CC1(C)S[C@@H]2[C@H](NC(=O)[C@H](N)c3ccccc3)C(=O)N2[C@H]1C(=O)O [Ampicillin] is strictly below 90 % DMSO.
*A* F

*Q* Take the molecule O=C1NC(=O)C(c2ccccc2)(c2ccccc2)N1 [Phenytoin] and say whether its 1 µM (% DMSO) is less than 90 % DMSO.
*A* T

*Q* Threshold test, 1 µM (% DMSO) < 90 % DMSO: CCCNCC(O)COc1ccccc1C(=O)CCc1ccccc1 (stereo not shown) [Propafenone]
*A* T

*Q* Lab note: confirm whether the reported 1 µM (% DMSO) for this molecule is below 90 % DMSO, equality not counting. molecule: CCCSc1ccc2nc(NC(=O)OC)[nH]c2c1 [Albendazole]
*A* T

*Q* Lab note: confirm whether the reported 1 µM (% DMSO) for this molecule is below 90 % DMSO, equality not counting. molecule: CCn1cc(C(=O)O)c(=O)c2ccc(C)nc21 [Nalidixic Acid]
*A* F

*Q* In plain terms, does C[C@](N)(Cc1ccc(O)c(O)c1)C(=O)O [Methyldopa] come in under 90 % DMSO for 1 µM (% DMSO)?
*A* T

*Q* Hello, is 1 µM (% DMSO) of the following molecule strictly smaller than 90 % DMSO? NC(=O)c1cnccn1 [Pyrazinamide]
*A* F

*Q* Item C#CCN(C)[C@H](C)Cc1ccccc1 [Selegiline] : 1 µM (% DMSO) beneath 90 % DMSO, strictly?
*A* F

*Q* Please check: 1 µM (% DMSO) for CCn1cc(C(=O)O)c(=O)c2cc(F)c(N3CCNCC3)cc21 [Norfloxacin] , strictly under 90 % DMSO or not?
*A* F

*Q* Check if 1 µM (% DMSO) falls below 90 % DMSO for CCN(CC)CCOc1ccc(C(=C(Cl)c2ccccc2)c2ccccc2)cc1 [Clomiphene] .
*A* T

*Q* Hello, I'm reviewing records and need to know if 1 µM (% DMSO) of CC(N)C12CC3CC(CC(C3)C1)C2 (stereo not shown) [Rimantadine] is below 90 % DMSO. Could you check?
*A* T

*Q* Given the entry CCN(CC)CCNC(=O)c1cc(Cl)c(N)cc1OC [Metoclopramide] , would its reported 1 µM (% DMSO) be below 90 % DMSO?
*A* F

*Q* I'd appreciate it if you could check whether NS(=O)(=O)c1cc(C2(O)NC(=O)c3ccccc32)ccc1Cl (stereo not shown) [Chlorthalidone] has 1 µM (% DMSO) smaller than 90 % DMSO.
*A* F

*Q* Record O=C1c2c(O)ccc(O)c2C(=O)c2c(NCCNCCO)ccc(NCCNCCO)c21 [Mitoxantrone] : is its 1 µM (% DMSO) strictly below 90 % DMSO?
*A* T

*Q* State whether 90 % DMSO exceeds 1 µM (% DMSO) recorded for CCc1c(C)[nH]c2c1C(=O)C(CN1CCOCC1)CC2 (stereo not shown) [Molindone] .
*A* F

*Q* is_below(1 µM (% DMSO), 90 % DMSO) for Nc1nc2ncc(CNc3ccc(C(=O)N[C@@H](CCC(=O)O)C(=O)O)cc3)nc2c(=O)[nH]1 [Folic acid] ?
*A* F

*Q* Consider CCc1cc(C(N)=S)ccn1 [Ethionamide] . Does its 1 µM (% DMSO) lie strictly below 90 % DMSO?
*A* T

*Q* Dear reviewer, please state whether CN1CCN(C2=Nc3cc(Cl)ccc3Nc3ccccc32)CC1 [Clozapine] has 1 µM (% DMSO) strictly beneath 90 % DMSO.
*A* T

*Q* Just wondering, is 1 µM (% DMSO) of CC(CN1c2ccccc2Sc2ccccc21)N(C)C (stereo not shown) [Promethazine] below 90 % DMSO?
*A* T

*Q* Field: below-cutoff. Rule: recorded 1 µM (% DMSO) strictly less than 90 % DMSO. Subject: Cc1cccc(CN2CCN(C(c3ccccc3)c3ccc(Cl)cc3)CC2)c1 (stereo not shown) [Meclizine]
*A* F

*Q* Just wondering, is 1 µM (% DMSO) of C=C[C@H]1C[N@@]2CC[C@H]1C[C@H]2[C@H](O)c1ccnc2ccc(OC)cc12 [Quinine] below 90 % DMSO?
*A* T

*Q* Is it true that 1 µM (% DMSO) reported for COc1cc([C@@H]2c3cc4c(cc3[C@H](O)[C@H]3COC(=O)[C@H]23)OCO4)cc(OC)c1OC [Podophyllotoxin] is less than 90 % DMSO?
*A* T

*Q* Just wondering, is 1 µM (% DMSO) of Cc1cnc(C(=O)NCCc2ccc(S(=O)(=O)NC(=O)NC3CCCCC3)cc2)cn1 [Glipizide] below 90 % DMSO?
*A* T

*Q* Strictly below 90 % DMSO in 1 µM (% DMSO)? CC(C)NCC(O)COc1ccc(CC(N)=O)cc1 (stereo not shown) [Atenolol]
*A* F

*Q* Problem: For the molecule CNCCC(Oc1ccc(C(F)(F)F)cc1)c1ccccc1 (stereo not shown) [Fluoxetine hydrochloride] , is 1 µM (% DMSO) under 90 % DMSO?
*A* T

*Q* Report whether reported 1 µM (% DMSO) is lower than 90 % DMSO (strictly) for COc1cc(C)c(/C=C/C(C)=C/C=C/C(C)=C/C(=O)O)c(C)c1C [Acitretin]
*A* F

*Q* Is 90 % DMSO strictly greater than the molecule's reported 1 µM (% DMSO)? molecule: CNC(=C[N+](=O)[O-])NCCSCc1ccc(CN(C)C)o1 [Ranitidine]
*A* F
